Just for reference, patent US20250340659A1 is where these values come from.

- Assay system: T1, canine OX40L, full length membrane form, expressed on HEK293 cells (canine)
- T1 chain: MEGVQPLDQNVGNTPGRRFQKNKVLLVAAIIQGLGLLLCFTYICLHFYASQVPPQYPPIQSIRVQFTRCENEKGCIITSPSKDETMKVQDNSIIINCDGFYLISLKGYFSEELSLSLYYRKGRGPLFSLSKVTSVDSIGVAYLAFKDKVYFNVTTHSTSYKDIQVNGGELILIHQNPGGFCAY
- Experimental details: cell-based or functional assay
Readout type: % Signal Inhibition Rep3 (%)
API: value field is a number in %; no unit string.

Just so you know, measured % Signal Inhibition Rep3 for PMX083 (antibody, V domains shown, also called PMX83) VH: EVQLVESGGDLVKPGGSLRLSCVASGFTFRTYHMSWVRQAPGKGLQWVAYITRDGISTTYTDAVKGRFTISRDNAKNTLFLQMNSLRADDTAVYYCASDLVLVLGAPFYWGQGTLVTVSS VL: SYELTQPPSVNVTLGETAHITCGGDSIGRKYVQWIQQNPGQAPVVIIYKDSNRPTGIPERFSGANSGNTATLTISGALAEDEADYYCQVGDSGTKAVFGEGTQLTVL came out at 81.6

Just so you know, measured % Signal Inhibition Rep3 for PMX104 (antibody, V domains shown) VH: EVQLVESGGDLVRPGGSLRLSCVASGFTFSNYHMSWVRQAPGKGLQWVAFINSGGTSTTYADAVRGRFTTSRDYAKNTLYLQMNSLRAEDTAVYYCTSGSIWTHFDYWGQGTLVTVSS VL: SFVLTQLPSVSVTLRQTARITCGGDIIGSKSVYWFQQKLGQAPILIIYRDDNRPTGIPERFSGASSGNTATLIISGALAEDEAHYYCQVWDSSSKAMFGGGTHLTVL came out at 33.9

Just so you know, measured % Signal Inhibition Rep3 for PMX082 (antibody, V domains shown, also called PMX82) VH: EVQLVESGGDLVKPGGSLRLSCVASGFTFSSHHMTWVRQAPGKGLQWVAYIVSGGTNTNYADAVKGRFTISRDNAKNTLYLQMNSLRAEDTAVYYCASDLVLAVGAPFYWGQGTLVTVSS VL: SYELTQPPSVNVTLRETAHITCGGDSIGRKYVQWIQQNPGQAPVVIIYKDINRPTGIPERFSGANSGNTATLTISGALAEDEADYYCQVGDSGTKAVFGEGTQLTVL came out at 72.1

Just so you know, measured % Signal Inhibition Rep3 for PMX088 (antibody, V domains shown) VH: EVQLVESGGDLVKPGGSLRLSCVASGFTFNTYHMNWVRQAPGKGLHWVAFINSGGTGTGYSDTVKGRFTISRDYAKNTLYLQMNSLRAEDTAVYYCVSGSIWTHFDYWGQGTLVTVSS VL: SYVLTQLPSVSMTLRQTAHITCGGDIIGSKSVYWYQQKLGQAPVLIIYRDTNRPTGIPERFSGASSGNTATLTISGALAEDEADYYCQVWDSNTQAVFGGGTHLTVL came out at 1.17

Just so you know, measured % Signal Inhibition Rep3 for PMX293 (antibody, V domains shown) VH: EVRLLESGGDLVKPAGSLRLSCAVSGFTFSTYDMSWVRQAPGKGLQWVAYITYDGRTTSYTDTVKGRFTVSRDNAKNMLYLKMNSLRSEDAAVYYCAKAHRGWFFDHWGQGTLVTVSS VL: SYVLTQLPSVSVTLRQTARITCGGDSIGSKNVYWYQQKLGQAPVLIIYDDTSRPSGIPERFSGANSGTTATLTISGALAEDEADYYCQVWDSSTGVFGGGTHLTVL came out at 62.1

Just so you know, measured % Signal Inhibition Rep3 for PMX029 (antibody, V domains shown, also called PMX29) VH: EVQLVESGGDLVKPGGSLRLSCVASGFTFSSYHMNWVRQAPGKGLQWVAYINTGGSRTSYADAVKGRFTISRDNAKNTLYLQMNSLRAEDTAVYYCANNYWDNFDSWGQGTLVTVSS VL: SYELTQPPSVNVTLRETAHITCGGDSIGSKYVQWIQQNPGQAPVVIIYKDTNRPTGIPERFSGANSGNTATLTISGALAEDEADYYCQVGDSGTKASVFGGGTHLTVL came out at 56

Just so you know, measured % Signal Inhibition Rep3 for PMX026 (antibody, V domains shown, also called PMX26) VH: EVHLVESGGDLVKPGGSLRLSCVASGFTFSSYHMSWVRQAPGKGLQWVAFINAGEISTNYADAVKGRFTISRDNAKNILYLQMNSLRAEDTAVYYCASGHIWIRPFDYWGQGTLVTVSS VL: SYVLTQLPSMSVTLRQTARITCEGDSIGRKRVNWYQQKLGQVPVLIIYDDDSRPSGIPERFSGANSGNTATLTISGALAEDEAEYYCQVWDSSNNWVFGEGTQLTVL came out at 68.7

Just so you know, measured % Signal Inhibition Rep3 for PMX094 (antibody, V domains shown) VH: DIHLVESGGDLVRPGGSLRLSCVASGFTFSNLHMNWVRQAPGKGLQWVAFINSGGSGTTYADVVRGRFTISRDYAKNTLYLQMNSLRADDTAVYYCASGSIWTHFDYWGQGTLVTVSS VL: SFVLTQLPSVSVTLRQTARITCGGDSIGSKSVYWYQQKLGQAPVLIIYRDSNRPTGIPERISGASSGNTATLTISGALAEDEADYYCQVWDSSNKAMFGGGTHLTVL came out at 42.7

Just so you know, measured % Signal Inhibition Rep3 for PMX058 (antibody, V domains shown, also called PMX58) VH: EVQLVESGGDLVKPEGSLRLSCVVSDFTFGSYGMSWVRQAPGKGLQWVAYISSDGRSTSYTDAVKGRFTISRDNAKNTLHLQMNSLRTEDTAVYYCAKLGRGFAFGYWGQGTLVTVSS VL: SYVLTQLPSKNVTLKQPAHITCGGDNIGSKSVHWYQQKLGQAPVLIIYYDSNRPTGIPERFSGANSGNTATLTISGALAEDEADYYCQVWDSSASVFGGGTHLTVL came out at 39.5

Just so you know, measured % Signal Inhibition Rep3 for PMX096 (antibody, V domains shown) VH: EVQLVESGGDLVKPGGSLRLSCVASGFTFNTYHMNWVRQAPGKGLHWVAFINSGGSDTSYADTVQGRFTISRDYAKNTLYLQMNSLRAEDTAVYYCASGYIWTHFDYWGQGTLVTVSS VL: SYVLTQLPSVSVTLRQTAHITCGGDIIGSKSVYWYQQKLGQAPVMIIYRDNNRPTGIPERFSGASSGNTATLTISGSLAEDEADYYCQVWDSRTQALFGGGTHLTVL came out at 54.4
